# TARGET_DESC: MBP-TaCCA1-7D (Triticum aestivum, UniProt A0A3B6TKA2 1-718)
# Sequence (A0A3B6TKA2 entry or part of it): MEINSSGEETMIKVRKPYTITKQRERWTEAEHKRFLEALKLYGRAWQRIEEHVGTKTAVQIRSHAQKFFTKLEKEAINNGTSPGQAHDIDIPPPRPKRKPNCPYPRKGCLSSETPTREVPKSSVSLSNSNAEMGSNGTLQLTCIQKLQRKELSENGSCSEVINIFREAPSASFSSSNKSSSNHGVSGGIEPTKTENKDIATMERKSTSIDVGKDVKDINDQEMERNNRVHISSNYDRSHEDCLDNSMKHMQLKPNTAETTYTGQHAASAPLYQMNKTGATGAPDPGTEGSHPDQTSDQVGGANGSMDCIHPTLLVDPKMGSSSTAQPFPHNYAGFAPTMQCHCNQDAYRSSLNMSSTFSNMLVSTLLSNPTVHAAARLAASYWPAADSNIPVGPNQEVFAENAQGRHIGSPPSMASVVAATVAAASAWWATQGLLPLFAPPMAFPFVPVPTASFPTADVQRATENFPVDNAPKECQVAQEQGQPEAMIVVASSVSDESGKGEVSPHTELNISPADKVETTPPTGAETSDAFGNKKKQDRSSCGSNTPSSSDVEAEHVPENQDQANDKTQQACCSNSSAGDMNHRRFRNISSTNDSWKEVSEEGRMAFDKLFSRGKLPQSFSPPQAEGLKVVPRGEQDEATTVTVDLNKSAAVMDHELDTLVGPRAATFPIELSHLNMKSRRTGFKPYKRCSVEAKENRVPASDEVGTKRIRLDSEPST
# TEST_DETAILS: BLI; kon 1.35E+05 1/Ms; koff 2.42E-04 1/s; EMSA: 150 ng protein, 2 pM DIG probe, 10 ul, 1 h on ice, 6% PAGE in 0.5x TBE pH 8.0; BLI: Octet RED96e, SA sensors with biotinylated TaCCA1-7D; buffers not stated
# CONDITION: protein: recombinant; tags: MBP (pMAL-c2X, N-terminal); biotinylated for BLI; label: 5' biotin; blunt
OBSERVATION_TYPE: pKd
Lab note — pKd values are minus log10 of concentrations in M.

Any idea what its pKd is? The binder is DAP-1 (TraesCS1D02G226100 promoter, CHLG) (dsDNA) DNA 1: TTATATGCCTATATGATATTATGATTTATTTGGTTT DNA 2: AAACCAAATAAATCATAATATCATATAGGCATATAA 8.75

These data points were gathered from paper PMC9340162.
